Tested on: panel of 55 breast cancer cell lines
Experiment: Cell growth inhibition assay (Cell Titer Glo, 72 h, 9 doses; GI50, TGI, LC50)
Type: cell-based, human
Details: BT20 cell line; censored GI50 values; value is the negative log10 of mol/L
measured-property: GI50
Write the number on its own, no unit after it.

Worked examples, 4 compounds total:
O=C1C(Cl)=C(NCCN2CCOCC2)C(=O)c2ncccc21; 5.48
CCNCCCCNCCCCNCCCCNCCCCNCC=CCNCCCCNCCCCNCCCCNCCCCNCC.Cl.Cl.Cl.Cl.Cl.Cl.Cl.Cl.Cl.Cl (stereo in doubt); 6.52
O=S(=O)(CC1CS1)c1ccc(Oc2ccccc2)cc1 (centres unmarked); 4.42
Cc1cc(C(=O)N2CCN(c3cccc(Cl)c3)CC2)n(-c2ccccc2)n1 [XRP44X]; 5.29

Please turn your attention to the following entry.
Exercise: What measured GI50 is associated with NC(=O)Nc1sc(-c2ccc(F)cc2)cc1C(N)=O on panel of 55 breast cancer cell lines?
Key: 4.36

---

Tested on: panel of 55 breast cancer cell lines
Assay: Cell growth inhibition assay (Cell Titer Glo, 72 h, 9 doses; GI50, TGI, LC50)
Assay type: cell-based, human
Conditions: Homo sapiens, MDA-MB-436, cell line MDAMB436; read-out: GI50 (converted)
# GI50 per record follows
Report only the number, with the unit µM understood.

COc1cccc2c1C(=O)c1c(O)c3c(c(O)c1C2=O)C[C@@](O)(C(=O)CO)C[C@@H]3O[C@H]1C[C@H](N)[C@H](O)[C@H](C)O1 [Doxorubicin]; 0.589
CO[C@H]1C[C@@H]2CC[C@@H](C)[C@@](O)(O2)C(=O)C(=O)N2CCCC[C@H]2C(=O)O[C@H]([C@H](C)C[C@@H]2CC[C@@H](O)[C@H](OC)C2)CC(=O)[C@H](C)/C=C(\C)[C@@H](O)[C@@H](OC)C(=O)[C@H](C)C[C@H](C)/C=C/C=C/C=C/1C [Rapamycin]; 166
CC(=O)O[C@@]12CO[C@@H]1C[C@H](O)[C@@]1(C)C(=O)[C@H](O)C3=C(C)[C@@H](OC(=O)[C@H](O)[C@@H](NC(=O)OC(C)(C)C)c4ccccc4)C[C@@](O)([C@@H](OC(=O)c4ccccc4)[C@H]21)C3(C)C [Docetaxel]; 0.017
Cc1cncc2cccc(S(=O)(=O)N3CCCN(C(=O)CN)C[C@@H]3C)c12 [Glycyl-H-1152]; 43.7
COc1cc2ncnc(Nc3ccc(F)c(Cl)c3)c2cc1OCCCN1CCOCC1 [Gefitinib]; 33.1

Please turn your attention to the following entry.
Exercise: Entry under review: C#Cc1cccc(Nc2ncnc3cc(OCCOC)c(OCCOC)cc23)c1 [Erlotinib] . Reported GI50?
Key: 55

---

# GI50 per record follows
Test system: panel of 55 breast cancer cell lines
Assay: Cell growth inhibition assay (Cell Titer Glo, 72 h, 9 doses; GI50, TGI, LC50)
Type: cell-based, human
Conditions: Homo sapiens, T47D, cell line T47D; read-out: GI50 (converted)

Worked examples, 2 molecules total:
CS(=O)(=O)CCNCc1ccc(-c2ccc3ncnc(Nc4ccc(OCc5cccc(F)c5)c(Cl)c4)c3c2)o1 [Lapatinib]; 16600 nM
C/C(=C\c1csc(C)n1)[C@@H]1C[C@@H]2O[C@]2(C)CCC[C@H](C)[C@H](O)[C@@H](C)C(=O)C(C)(C)[C@@H](O)CC(=O)N1 [Ixabepilone]; 7.94 nM

Please turn your attention to the following entry.
Exercise: Entry under review: NS(=O)(=O)OC[C@@H]1C[C@@H](n2ccc3c(N[C@H]4CCc5ccccc54)ncnc32)C[C@@H]1O [MLN4924] . Reported GI50?
Key: 117 nM

---

System: panel of 55 breast cancer cell lines
Assay: Cell growth inhibition assay (Cell Titer Glo, 72 h, 9 doses; GI50, TGI, LC50)
Assay type: cell-based, human
Details: Homo sapiens, MDA-MB-468, cell line MDAMB468; read-out: GI50 (converted)
measured-property: GI50 (µM)
Report only the number, with the unit µM understood.

Exercise: Entry under review: COc1cccc2c1C(=O)c1c(O)c3c(c(O)c1C2=O)C[C@@](O)(C(=O)CO)C[C@@H]3O[C@H]1C[C@H](N)[C@H](O)[C@H](C)O1 [Doxorubicin] . Reported GI50?
Key: 0.741

Exercise: Entry under review: Cc1cncc2cccc(S(=O)(=O)N3CCCN(C(=O)CN)C[C@@H]3C)c12 [Glycyl-H-1152] . Reported GI50?
Key: 2.04

Exercise: Entry under review: Cn1cnc2c(F)c(Nc3ccc(Br)cc3Cl)c(C(=O)NOCCO)cc21 [AZD6244] . Reported GI50?
Key: 50.1

Exercise: Entry under review: CC(C)C[C@H](NC(=O)[C@H](Cc1ccccc1)NC(=O)c1cnccn1)B(O)O [Bortezomib] . Reported GI50?
Key: 0.0141

---

Test system: panel of 55 breast cancer cell lines
Test: Cell growth inhibition assay (Cell Titer Glo, 72 h, 9 doses; GI50, TGI, LC50)
Format: cell-based, human
Settings: LY2 cell line; censored GI50 values; value is the negative log10 of mol/L
# GI50 per record follows
Write the number on its own, no unit after it.

Worked examples, 2 compounds total:
CNC(=O)c1c(F)cccc1Nc1nc(Nc2cc3c(cc2OC)CCN3C(=O)CN(C)C)nc2[nH]ccc12 [GSK1838705A]; 6.26
NC(=O)Nc1sc(-c2ccc(F)cc2)cc1C(N)=O; 4.54

Exercise: Entry under review: O=c1[nH]c2ccccc2n1C1CCN(Cc2ccc(-c3nc4cc5[nH]cnc5cc4nc3-c3ccccc3)cc2)CC1 . Reported GI50?
Key: 5.77

Exercise: Entry under review: Cc1cc(C(C)Nc2ccccc2)c2nc(N3CCOCC3)cc(=O)n2c1 (stereo not drawn) . Reported GI50?
Key: 4.78

Exercise: Entry under review: N.N.O=C([O-])C1(C(=O)[O-])CCC1.[Pt+2] . Reported GI50?
Key: 4.39

Exercise: Entry under review: CC(/C=C/C(=O)NO)=C\[C@@H](C)C(=O)c1ccc(N(C)C)cc1 . Reported GI50?
Key: 4.86

---

System: panel of 55 breast cancer cell lines
Test: Cell growth inhibition assay (Cell Titer Glo, 72 h, 9 doses; GI50, TGI, LC50)
Type: cell-based, human
Settings: Homo sapiens, UACC-812, cell line UACC812; read-out: GI50 (converted)
I'd appreciate it if you marked entries met when GI50 is lower than 0.06 µM and not met when it is not.

COC1=C2C[C@@H](C)C[C@H](OC)[C@H](O)[C@@H](C)/C=C(\C)[C@H](OC(N)=O)[C@@H](OC)/C=C\C=C(/C)C(=O)NC(=CC1=O)C2=O; met
CCN(CC)CCCCNc1ncc2cc(-c3cc(OC)cc(OC)c3)c(NC(=O)NC(C)(C)C)nc2n1; not met
CC(=O)O[C@@]12CO[C@@H]1C[C@H](O)[C@@]1(C)C(=O)[C@H](O)C3=C(C)[C@@H](OC(=O)[C@H](O)[C@@H](NC(=O)OC(C)(C)C)c4ccccc4)C[C@@](O)([C@@H](OC(=O)c4ccccc4)[C@H]21)C3(C)C; met
Cc1cncc2cccc(S(=O)(=O)N3CCCN(C(=O)CN)C[C@@H]3C)c12; not met
CO[C@H]1C[C@@H]2CC[C@@H](C)[C@@](O)(O2)C(=O)C(=O)N2CCCC[C@H]2C(=O)O[C@H]([C@H](C)C[C@@H]2CC[C@@H](O)[C@H](OC)C2)CC(=O)[C@H](C)/C=C(\C)[C@@H](O)[C@@H](OC)C(=O)[C@H](C)C[C@H](C)/C=C/C=C/C=C/1C; met

Note: attention shifts to another entry.
Exercise: State whether 0.06 µM exceeds GI50 recorded for Nc1nc2[nH]cc(CCc3ccc(C(=O)N[C@@H](CCC(=O)O)C(=O)O)cc3)c2c(=O)[nH]1 .
Key: not met

---

Test system: panel of 55 breast cancer cell lines
Assay: Cell growth inhibition assay (Cell Titer Glo, 72 h, 9 doses; GI50, TGI, LC50)
Type: cell-based, human
Details: Homo sapiens, SUM-159-PT, SUM159PT cell line; censored GI50 values; read-out: GI50 (converted)
I'd appreciate it if you marked entries 1.0 when GI50 is lower than 0.1 µM and 0.0 when it is not.

Cc1[nH]c2ccccc2c1CCNCc1ccc(/C=C/C(=O)NO)cc1; 0.0
COc1cc([C@@H]2c3cc4c(cc3[C@@H](O[C@@H]3O[C@@H]5CO[C@@H](C)O[C@H]5[C@H](O)[C@H]3O)[C@H]3COC(=O)[C@H]23)OCO4)cc(OC)c1O [Etoposide]; 0.0
COc1cccc2c1C(=O)c1c(O)c3c(c(O)c1C2=O)C[C@@](O)(C(=O)CO)C[C@@H]3O[C@H]1C[C@H](N)[C@@H](O)[C@H](C)O1 [Epirubicin]; 0.0
CC(C)C[C@H](NC(=O)[C@H](Cc1ccccc1)NC(=O)c1cnccn1)B(O)O; 1.0
COc1cc2ncnc(Nc3ccc(F)c(Cl)c3)c2cc1OCCCN1CCOCC1; 0.0
C#Cc1cccc(Nc2ncnc3cc(OCCOC)c(OCCOC)cc23)c1; 0.0

Exercise: State whether 0.1 µM exceeds GI50 recorded for COC1=C2C[C@@H](C)C[C@H](OC)[C@H](O)[C@@H](C)/C=C(\C)[C@H](OC(N)=O)[C@@H](OC)/C=C\C=C(/C)C(=O)NC(=CC1=O)C2=O .
Key: 1.0
